# System: giant foxtail (Setaria faberii)
# protocol details: Test B pre-/postemergence plant response
# Assay type: in vivo
# stated conditions: Postemergence, 31 g ai/ha; 0 to 100 scale (0 no effect, 100 complete control)
measure: Plant response rating, Foxtail, Giant
Numbers only.

# count of solved cases: 2
structure	measured result
COc1cnc(Oc2ccccc2-c2cc(C(F)F)no2)nc1	0
Clc1cnc(Oc2ccccc2-c2cc(Cl)cnn2)nc1	0

Fill blank: measured Plant response rating, Foxtail, Giant of the compound "CC(=O)c1cc(-c2ccccc2Oc2ncc(Br)cn2)no1" is ____.
0

----------
Hi there, I'd appreciate the recorded Plant response rating, Corn for every entry that follows.
# System: corn (Zea mays)
# protocol details: Test B pre-/postemergence plant response
# Assay type: in vivo
# stated conditions: Postemergence, 500 g ai/ha; 0 to 100 scale (0 no effect, 100 complete control)
Answers are plain numbers.

structure	Plant response rating, Corn
Clc1cnc(Oc2ccccc2-c2ccc(Br)s2)nc1	10

Take each entry in turn and give its Plant response rating, Corn.
1. Cn1nnc(-c2ccccc2Oc2ncc(Cl)cn2)n1
2. Clc1cnc(Oc2ccccc2-c2cc(Cl)cc(Cl)c2)nc1

1: 10; 2: 10

The reported numbers originate from patent US10131652B2.
